Please respond with reported log10 of Kd for every item in the list.
# Experimental system: T1, EsCas13d, nuclease-dead (Eubacterium siraeum, UniProt B0MS50, R295A;H300A;R849A;H854A)
# T1 sequence: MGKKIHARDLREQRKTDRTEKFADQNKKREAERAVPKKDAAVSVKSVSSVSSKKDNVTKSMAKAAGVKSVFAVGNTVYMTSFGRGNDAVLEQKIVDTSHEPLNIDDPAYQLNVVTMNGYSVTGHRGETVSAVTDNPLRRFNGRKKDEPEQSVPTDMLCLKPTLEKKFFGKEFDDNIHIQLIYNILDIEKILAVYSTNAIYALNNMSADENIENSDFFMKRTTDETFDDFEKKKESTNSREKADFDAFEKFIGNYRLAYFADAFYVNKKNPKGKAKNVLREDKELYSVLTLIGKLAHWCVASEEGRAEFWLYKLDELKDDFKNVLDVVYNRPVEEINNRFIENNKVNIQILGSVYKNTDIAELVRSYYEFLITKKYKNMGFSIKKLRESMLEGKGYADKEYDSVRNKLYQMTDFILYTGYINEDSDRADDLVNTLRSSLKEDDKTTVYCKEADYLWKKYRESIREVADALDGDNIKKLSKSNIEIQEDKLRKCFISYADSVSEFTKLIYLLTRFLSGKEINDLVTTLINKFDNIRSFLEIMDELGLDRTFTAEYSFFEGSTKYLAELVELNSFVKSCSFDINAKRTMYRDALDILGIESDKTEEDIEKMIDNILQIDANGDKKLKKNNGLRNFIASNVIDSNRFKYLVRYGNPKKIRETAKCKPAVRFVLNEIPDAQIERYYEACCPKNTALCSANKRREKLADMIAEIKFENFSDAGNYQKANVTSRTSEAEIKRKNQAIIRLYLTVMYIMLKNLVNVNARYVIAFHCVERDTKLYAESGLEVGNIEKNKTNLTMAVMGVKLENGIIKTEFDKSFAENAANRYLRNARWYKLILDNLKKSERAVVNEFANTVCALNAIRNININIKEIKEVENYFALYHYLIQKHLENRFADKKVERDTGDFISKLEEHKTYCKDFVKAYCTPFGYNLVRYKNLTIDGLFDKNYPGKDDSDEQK
# Protocol: crRNA (strand 1, pre-loaded); Mg2+; 40 mM Tris-HCl pH 7.5, 150 mM NaCl, 6 mM MgCl2, 1 mM DTT, 0.1% Tween-20, 0.2 mg/ml BSA; 25 C; 10 min per concentration, then washed
# Cond: tags: His6-TwinStrep-SUMO cleaved; N-terminal SNAP kept (SNAP-Surface 488); label: 3' end held by stalled T7 RNA polymerase
Recall that a logarithmic scale is used here: each number is log10 of Kd in nM.

Completed entries (count: 10):
{"Binder": "target 1 U8A,C21A (mixed) RNA 1: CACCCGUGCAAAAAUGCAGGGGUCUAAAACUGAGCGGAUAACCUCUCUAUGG RNA 2: GGGAAUGGAUCCACAUCUACGAAUUCGUACAAUAGAGAGGUUAACCGCUCACCGAGAUCGGAAGAGCACACGU", "Metric name": "log10 of Kd", "Meas value": 1.74}
{"Binder": "target 1 complement block 6-11 (mixed) RNA 1: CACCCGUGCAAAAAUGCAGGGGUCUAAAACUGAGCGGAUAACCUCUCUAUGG RNA 2: GGGAAUGGAUCCACAUCUACGAAUUCGUACCAUAGAGAGGAAUAGGGCUCACCGAGAUCGGAAGAGCACACGU", "Metric name": "log10 of Kd", "Meas value": 1.16}
{"Binder": "target 1 MT 5'PFS GUA 3'PFS CAU (mixed) RNA 1: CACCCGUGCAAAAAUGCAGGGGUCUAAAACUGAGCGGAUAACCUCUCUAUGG RNA 2: GGGAAUGGAUCCACAUCUACGAAUUCGUACCAUAGAGAGGUUAUCCGCUCACAUAGAUCGGAAGAGCACACGU", "Metric name": "log10 of Kd", "Meas value": 1.08}
{"Binder": "target 2 MT 5'PFS GCG 3'PFS CUA (mixed) RNA 1: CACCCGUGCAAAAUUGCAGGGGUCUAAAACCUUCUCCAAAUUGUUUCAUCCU RNA 2: GGGAAUGGAUCCACAUCUACGAAUUCGCGAGGAUGAAACAAUUUGGAGAAGCUAAGAUCGGAAGAGCACACGU", "Metric name": "log10 of Kd", "Meas value": 1.16}
{"Binder": "target 1 MT 5'PFS UCC 3'PFS UCU (mixed) RNA 1: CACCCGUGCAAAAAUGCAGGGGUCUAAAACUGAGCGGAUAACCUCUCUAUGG RNA 2: GGGAAUGGAUCCACAUCUACGAAUUCUCCCCAUAGAGAGGUUAUCCGCUCAUCUAGAUCGGAAGAGCACACGU", "Metric name": "log10 of Kd", "Meas value": 1.36}
{"Binder": "target 1 insA 3' of 22,insA 3' of 17 (mixed) RNA 1: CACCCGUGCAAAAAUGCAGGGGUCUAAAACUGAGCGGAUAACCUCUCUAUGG RNA 2: GGGAAUGGAUCCACAUCUACGAAUUCGUACACAUAGAAGAGGUUAUCCGCUCACCGAGAUCGGAAGAGCACACGU", "Metric name": "log10 of Kd", "Meas value": 1.44}
{"Binder": "target 1 insA 3' of 22,insG 3' of 11 (mixed) RNA 1: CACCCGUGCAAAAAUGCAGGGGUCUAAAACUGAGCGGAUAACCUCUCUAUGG RNA 2: GGGAAUGGAUCCACAUCUACGAAUUCGUACACAUAGAGAGGUGUAUCCGCUCACCGAGAUCGGAAGAGCACACGU", "Metric name": "log10 of Kd", "Meas value": 1.62}
{"Binder": "target 1 C7A,C22G (mixed) RNA 1: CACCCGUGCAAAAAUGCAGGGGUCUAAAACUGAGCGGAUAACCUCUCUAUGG RNA 2: GGGAAUGGAUCCACAUCUACGAAUUCGUAGCAUAGAGAGGUUAUACGCUCACCGAGAUCGGAAGAGCACACGU", "Metric name": "log10 of Kd", "Meas value": 1.61}
{"Binder": "target 2 MT 5'PFS GGC 3'PFS UCC (mixed) RNA 1: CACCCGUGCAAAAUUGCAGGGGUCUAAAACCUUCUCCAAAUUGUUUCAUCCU RNA 2: GGGAAUGGAUCCACAUCUACGAAUUCGGCAGGAUGAAACAAUUUGGAGAAGUCCAGAUCGGAAGAGCACACGU", "Metric name": "log10 of Kd", "Meas value": 1.56}
{"Binder": "target 2 MT 5'PFS AAC 3'PFS UAU (mixed) RNA 1: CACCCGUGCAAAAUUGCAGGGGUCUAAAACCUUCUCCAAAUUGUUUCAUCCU RNA 2: GGGAAUGGAUCCACAUCUACGAAUUCAACAGGAUGAAACAAUUUGGAGAAGUAUAGAUCGGAAGAGCACACGU", "Metric name": "log10 of Kd", "Meas value": 0.73}

Provide reported log10 of Kd for each item, in the same order as listed.
1. target 2 MT 5'PFS UAU 3'PFS UAG (mixed) RNA 1: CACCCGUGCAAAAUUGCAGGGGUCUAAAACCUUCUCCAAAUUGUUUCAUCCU RNA 2: GGGAAUGGAUCCACAUCUACGAAUUCUAUAGGAUGAAACAAUUUGGAGAAGUAGAGAUCGGAAGAGCACACGU
2. target 1 insC 3' of 14,insA 3' of 2 (mixed) RNA 1: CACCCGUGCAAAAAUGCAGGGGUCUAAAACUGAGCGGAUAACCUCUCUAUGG RNA 2: GGGAAUGGAUCCACAUCUACGAAUUCGUACCAUAGAGACGGUUAUCCGCUCAACCGAGAUCGGAAGAGCACACGU
3. target 2 MT 5'PFS CAC 3'PFS AGU (mixed) RNA 1: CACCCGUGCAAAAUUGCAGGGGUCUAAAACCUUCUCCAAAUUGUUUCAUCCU RNA 2: GGGAAUGGAUCCACAUCUACGAAUUCCACAGGAUGAAACAAUUUGGAGAAGAGUAGAUCGGAAGAGCACACGU
4. target 1 insC 3' of 12,insG 3' of 3 (mixed) RNA 1: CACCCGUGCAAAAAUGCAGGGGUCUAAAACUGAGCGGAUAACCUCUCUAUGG RNA 2: GGGAAUGGAUCCACAUCUACGAAUUCGUACCAUAGAGAGGCUUAUCCGCUGCACCGAGAUCGGAAGAGCACACGU
5. target 1 G5U,G13U (mixed) RNA 1: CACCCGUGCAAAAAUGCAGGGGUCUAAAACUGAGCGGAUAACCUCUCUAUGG RNA 2: GGGAAUGGAUCCACAUCUACGAAUUCGUACCAUAGAGAUGUUAUCCUCUCACCGAGAUCGGAAGAGCACACGU

Marked response:
1.53
1.72
0.43
0.88
1.81

These data points were gathered from paper PMC10786891.
